Target under test: LXRα ligand-binding domain (LBD) (Homo sapiens, UniProt Q13133)
Construct: expressed in transfected cells; host or cells: HEK293
Sequence (Q13133 155-447): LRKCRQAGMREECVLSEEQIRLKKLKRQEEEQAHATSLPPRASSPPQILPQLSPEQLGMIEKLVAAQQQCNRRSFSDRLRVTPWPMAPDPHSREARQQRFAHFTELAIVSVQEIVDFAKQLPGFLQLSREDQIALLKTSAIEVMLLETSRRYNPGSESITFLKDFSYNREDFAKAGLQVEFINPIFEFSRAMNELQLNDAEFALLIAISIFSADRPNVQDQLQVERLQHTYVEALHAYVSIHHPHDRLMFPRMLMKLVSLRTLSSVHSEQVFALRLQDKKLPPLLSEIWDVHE
Assay summary: LXR Gal4 reporter transient transfection assay (M2H), Gal4α LBD
Format: cell-based
Condition context: HEK293 cells; read-out: M2H Gal4α LBD activity range (EC50)
Outcome measure: EC50

Cc1cc(C)c(S(=O)(=O)N(Cc2ccc(N3CCCC(CC(=O)O)C3=O)cc2)Cc2ccc(C(F)(F)F)o2)c(C)c1 (centres unmarked) [Example 16/1] :: 1 to 10 µM
Cc1cc(C)c(S(=O)(=O)N(Cc2ccc(-c3cc(F)c(CO)c(S(C)(=O)=O)c3)cc2)Cc2ccc(C(F)(F)F)o2)c(C)c1 [Example C3/2] :: < 0.1 µM

-- ask Need EC50, item Cc1cc(C)c(S(=O)(=O)N(Cc2ccc(-c3cccc(S(=O)(=O)C(C)(C)C(=O)O)c3)cc2)Cc2ccc(C(F)(F)F)o2)c(C)c1 [5/2]
-- reply 0.1 to 1 µM

-- ask Need EC50, item COc1cc(-c2cccc(C(C)(C)C(=O)O)c2)ccc1CN(Cc1ccc(C(F)(F)F)o1)S(=O)(=O)c1c(C)cc(C)cc1C [10/4]
-- reply < 0.1 µM

-- ask Need EC50, item Cc1cc(C)c(S(=O)(=O)N(Cc2ccc(-c3cccc(OCC(=O)O)c3)cc2)Cc2ccc(C(F)(F)F)o2)c(C)c1 [5/3]
-- reply 0.1 to 1 µM

---

Target under test: LXRα ligand-binding domain (LBD) (Homo sapiens, UniProt Q13133)
Assay summary: LXR Gal4 reporter transient transfection assay (M2H), Gal4α LBD
Condition context: HEK293 cells; read-out: M2H Gal4α LBD activity range (EC50)
Description: The tested compounds were usually dissolved, tested and stored as 20 mM stock solutions in DMSO. […] LXRα and LXRβ activity status was determined via detection of interaction with coactivator and corepressor proteins in mammalian two-hybrid experiments (M2H). […] Interaction was monitored via activation of a coexpressed Firefly Luciferase Reporter gene under control of a promoter containing repetitive GAL4 response elements (vector pFRLuc; Stratagene). […]
pEC50: −log10 of the molar value.
Outcome measure: pEC50

Illustrative cases are given below, each with its answer.
Cc1cc(C)c(S(=O)(=O)N(Cc2ccc(N3CCCC(C(C)(C)C(=O)O)C3)cc2)Cc2ccc(C(F)(F)F)o2)c(C)c1 (stereo not shown) :: 6.00 to 7.00
Cc1cc(C)c(S(=O)(=O)N(Cc2ccc(-c3cccc(C(C)(C)C(=O)O)c3)cc2)Cc2ccc(C(F)(F)F)o2)c(C)c1 :: > 7.00
Cc1cc(C)c(S(=O)(=O)N(Cc2ccc(-c3cccc([S+]([O-])CC(=O)O)c3)cc2)Cc2ccc(C(F)(F)F)o2)c(C)c1 (stereo not shown) :: 5.00 to 6.00

Would you kindly look at the next entry?
-- ask Need pEC50, item Cc1cc(C)c(S(=O)(=O)N(Cc2ccc(-c3cccc(C(C)C(=O)O)c3)cc2)Cc2ccc(C(F)(F)F)o2)c(C)c1 (stereo not shown)
-- reply > 7.00

---

Target under test: GST-LXRβ ligand-binding domain (Homo sapiens, UniProt P55055, DUP175-175)
Construct: amino acids 156-461; NP009052
Sequence (P55055 with tags, fused parts or gaps DUP175-175): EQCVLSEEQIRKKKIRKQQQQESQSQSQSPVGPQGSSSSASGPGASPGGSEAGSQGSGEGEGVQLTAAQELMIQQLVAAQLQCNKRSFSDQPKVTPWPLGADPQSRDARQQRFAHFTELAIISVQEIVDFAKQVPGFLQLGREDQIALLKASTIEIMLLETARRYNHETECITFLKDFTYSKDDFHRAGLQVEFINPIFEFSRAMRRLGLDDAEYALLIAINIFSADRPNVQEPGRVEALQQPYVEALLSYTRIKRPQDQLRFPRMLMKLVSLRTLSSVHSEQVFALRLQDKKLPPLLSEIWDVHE
Assay summary: TR-FRETβ activity assay (LXRβ-LBD / NCoA3 coactivator peptide, prestimulated with 24(S)-25-epoxycholesterol)
Condition context: 1 μM 24(S)-25-epoxycholesterol as prestimulating agonist; read-out: FRETβ activity range (EC50)
Outcome measure: EC50

Illustrative cases are given below, each with its answer.
Cc1ccc2ccccc2c1S(=O)(=O)N(Cc1ccc(-c2cccc(S(=O)(=O)CC(=O)O)c2)cc1)Cc1cccc(C(F)(F)F)c1 :: 1000 to 10000 nM
COc1cc(-c2ccc3c(c2)C(C)(C)C(=O)OC3)ccc1CN(Cc1ccc(C(F)(F)F)o1)S(=O)(=O)c1c(C)ccc2ccccc12 :: 1000 to 10000 nM
Cc1ccc(S(=O)(=O)N(Cc2ccc(-c3cccc(S(=O)(=O)CC(=O)O)c3)cc2)Cc2ccc(C(F)(F)F)o2)c(C)c1 :: 1000 to 10000 nM
Cc1cc(C)c(S(=O)(=O)N(Cc2ccc(-c3cccc(S(=O)(=O)CC(=O)O)c3)cc2)Cc2ccc(F)c(C)c2)c(C)c1 :: > 10000 nM
Cc1cc(C)c(S(=O)(=O)N(Cc2ccc(-c3cccc(C4(C(=O)O)CCOCC4)c3)cc2)Cc2ccc(C(F)(F)F)o2)c(C)c1 :: > 10000 nM

-- ask Need EC50, item `Cc1cccc(C)c1S(=O)(=O)N(Cc1ccc(-c2cccc(S(=O)(=O)CC(=O)O)c2)cc1)Cc1ccc(C(F)(F)F)o1`
-- reply 1000 to 10000 nM

-- ask Need EC50, item `Cc1cc(C)c(S(=O)(=O)N(Cc2ccc(-c3cccc(S(=O)(=O)CC(=O)O)c3)cc2)Cc2ccc(C)o2)c(C)c1`
-- reply > 10000 nM
